Target: Atypical kinase COQ8A, mitochondrial (Homo sapiens)
Sequence (Q8NI60 163-647 limits assumed): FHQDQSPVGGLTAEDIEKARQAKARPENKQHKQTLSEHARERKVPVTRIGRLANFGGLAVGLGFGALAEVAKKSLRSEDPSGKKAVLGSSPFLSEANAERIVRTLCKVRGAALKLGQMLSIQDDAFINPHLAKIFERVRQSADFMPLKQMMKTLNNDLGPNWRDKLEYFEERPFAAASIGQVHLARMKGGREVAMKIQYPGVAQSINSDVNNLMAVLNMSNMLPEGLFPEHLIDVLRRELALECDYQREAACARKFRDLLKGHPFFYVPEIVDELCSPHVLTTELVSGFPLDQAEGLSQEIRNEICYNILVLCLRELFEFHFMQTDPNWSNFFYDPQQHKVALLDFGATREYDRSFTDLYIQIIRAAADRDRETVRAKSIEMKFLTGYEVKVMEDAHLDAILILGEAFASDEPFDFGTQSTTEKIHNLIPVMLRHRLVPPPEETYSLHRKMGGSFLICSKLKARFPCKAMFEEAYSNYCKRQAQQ
Assay: Competitive binding affinity to ADCK3 (unknown origin) at 10 uM in presence of ATP relative to control
MEASURED_ENDPOINT: inhibition (%)
Respond numerically; units are % and should not be typed.

Example entries and their recorded answers appear below.
O[C@H]1CC[C@H](Nc2nccc(-n3ccc4ccccc43)n2)CC1 : 80
O[C@H]1CC[C@H](Nc2nccc(-c3n[nH]c4ccccc34)n2)CC1 : 79
O[C@H]1CC[C@H](Nc2nccc(-n3ncc4ccccc43)n2)CC1 : 89

Ask: Look up inhibition: O[C@H]1CC[C@H](Nc2nccc(-n3nnc4ccccc43)n2)CC1
Result: 92
